Quick reference: EC50 of the listed items.
system: HIV-1 viral strain NL4-3; assay: Anti-viral assay in vitro (MTT, infected MT-4 cells, six days); format: cell-based; settings: Human immunodeficiency virus 1, NL43, MT4, 144 h, read-out: ANTI-HIV-EC50 VIRAL STRAIN NL4-3

COMPOUND	EC50
Cc1ccccc1C[C@H](NC(=O)c1cccc(C)c1O)C(=O)NCCCC[C@@H](CO)N(CC(C)C)S(=O)(=O)c1ccc(N)cc1	> 50000 nM
COC(=O)N[C@H](C(=O)NCCCC[C@H](C(N)=O)N(CC(C)C)S(=O)(=O)c1ccc(N)cc1)C(c1ccccc1)c1ccccc1	30 nM
COC(=O)N[C@@H](Cc1ccccc1F)C(=O)NCCCC[C@H](CO)N(CC(C)C)S(=O)(=O)c1ccc2c(c1)CCO2	2140 nM

Moving on to another compound below.
Input: Given CC(C)CN([C@H](CO)CCCCNC(=O)[C@H](Cc1ccccc1Br)NC(=O)c1cccc(O)n1)S(=O)(=O)c1ccc(N)cc1 , state its recorded EC50.
Output: 99 nM
